# TGI per record follows
tested on: RPMI-8226 leukemia; experiment: NCI tumour cell line growth inhibition, 48 h

# count of solved cases: 5
CC(C)(O)CNc1nc(Nc2ccnc(C(F)(F)F)c2)nc(-c2cccc(C(F)(F)F)n2)n1 | 56.1 µM
CCOC(=O)C1(C(=O)OCC)[C@@H](c2ccccc2)C2=NO[C@@H]3CCC[C@H]1[C@H]23 | > 100 µM
O=C(NC1CCN(Cc2ccccc2)CC1)c1ccc(I)cc1 | > 100 µM
CCOC(=O)CNC(=O)C(CSC(=O)N(O)c1ccc(Cl)cc1)NC(=O)CCC(N)C(=O)OCC (stereo unspecified) | 46 µM
CC(=O)C1=CN=C2C(=O)N(c3ccccc3)N(C)C12C (stereo unspecified) | > 100 µM

Need TGI of CCC1(O)C(=O)OCc2c1cc1n(c2=O)Cc2cc3c(NC(=O)CN)cccc3nc2-1 (stereo unspecified) , thanks.
40.3 µM

Can you check `CCOC(=O)/C=C/CCO[Si](C)(C)C(C)(C)C` next?
> 100 µM

Next entry: `COc1ccc(/C(Br)=C2\OC(=O)c3ccccc32)cc1`
> 10 µM
